Catalogue of compounds with associated Ki
testedTarget: EP3 receptor (Homo sapiens)
Construct: purchased Millipore HTS092M
Sequence (P43115 whole entry): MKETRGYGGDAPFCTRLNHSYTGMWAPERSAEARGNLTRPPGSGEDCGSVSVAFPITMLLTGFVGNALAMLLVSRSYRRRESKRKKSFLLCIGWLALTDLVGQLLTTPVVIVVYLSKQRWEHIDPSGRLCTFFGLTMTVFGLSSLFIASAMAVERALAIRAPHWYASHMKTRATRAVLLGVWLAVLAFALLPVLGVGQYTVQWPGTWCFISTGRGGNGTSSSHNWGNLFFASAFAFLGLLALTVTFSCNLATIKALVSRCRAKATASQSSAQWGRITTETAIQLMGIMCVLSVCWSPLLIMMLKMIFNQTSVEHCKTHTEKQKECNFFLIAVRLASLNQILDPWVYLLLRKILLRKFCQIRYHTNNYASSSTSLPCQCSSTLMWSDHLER
experimentalDetails: [3H]-PGE2 binding assay (EP3 competition binding)
measurementConditions: read-out: [3H]-PGE2 Binding Ki

[
  {
    "compound": "CCC(CC)(CC1OC(=O)NC1=O)c1ccc(-c2ccc3cccc(F)c3c2)[nH]c1=O (stereo not shown)",
    "modifierSign": "=",
    "Ki / nM": 23
  },
  {
    "compound": "CC1(c2ccc(-c3ccc4ccccc4c3)[nH]c2=O)CN/C(=N\\O)N1 (stereo not shown)",
    "modifierSign": "=",
    "Ki / nM": 180
  },
  {
    "compound": "CCN1CCOc2ccc(-c3ccc(C(c4noc(=O)[nH]4)C(C)C)c(=O)[nH]3)cc21 (stereo not shown)",
    "modifierSign": "=",
    "Ki / nM": 368
  },
  {
    "compound": "CCn1cc2c(C)cc(-c3ccc(C(/C=C4\\OC(=O)NC4=O)C(C)C)c(=O)[nH]3)cc2n1 (stereo not shown)",
    "modifierSign": ">",
    "Ki / nM": 10000
  },
  {
    "compound": "CCn1ncc2c(F)cc(-c3ccc(C(CC4CCC(=O)N4)C(C)C)c(=O)[nH]3)cc21 (stereo not shown)",
    "modifierSign": "=",
    "Ki / nM": 11
  },
  {
    "compound": "CC(C)C1(Cc2ccc(-c3ccc4cccc(F)c4c3)[nH]c2=O)NC(=O)NC1=O (stereo not shown)",
    "modifierSign": "=",
    "Ki / nM": 108
  },
  {
    "compound": "Cc1cc(C(c2ncc[nH]2)C(C)C)c(=O)[nH]c1-c1ccc2cccc(F)c2c1 (stereo not shown)",
    "modifierSign": "=",
    "Ki / nM": 23
  },
  {
    "compound": "CC1(c2ccc(-c3ccc4ccccc4c3)[nH]c2=O)CNC(NS(C)(=O)=O)=N1 (stereo not shown)",
    "modifierSign": "=",
    "Ki / nM": 116
  },
  {
    "compound": "CC(C)S(=O)(=O)N1CCC(c2ccc(-c3ccc4ccccc4c3)[nH]c2=O)CC1",
    "modifierSign": "=",
    "Ki / nM": 38
  },
  {
    "compound": "CCn1ncc2c(F)cc(-c3ccc(C(CC)(CC)c4nnc(N)o4)c(=O)[nH]3)cc21",
    "modifierSign": "=",
    "Ki / nM": 2060
  },
  {
    "compound": "CC(C)C(CC(=O)NS(C)(=O)=O)c1ccc(-c2ccc3ccccc3c2)[nH]c1=O (stereo not shown)",
    "modifierSign": "=",
    "Ki / nM": 69
  },
  {
    "compound": "CCn1ncc2c(F)cc(-c3ccc(C(CC)(CC)c4nnco4)c(=O)[nH]3)cc21",
    "modifierSign": "=",
    "Ki / nM": 9
  },
  {
    "compound": "O=C1NC(=O)/C(=C/C(c2ccc(-c3ccc4cccc(F)c4c3)[nH]c2=O)C2CC2)O1 (stereo not shown)",
    "modifierSign": "=",
    "Ki / nM": 22
  },
  {
    "compound": "CCn1ncc2c(F)cc(-c3ccc(C4CC5CN(C(=O)NC(C)C)CC5C4)c(=O)[nH]3)cc21 (stereo not shown)",
    "modifierSign": "=",
    "Ki / nM": 20
  },
  {
    "compound": "O=C1NC(=O)C(CC2(c3ccc(-c4ccc5cccc(F)c5c4)[nH]c3=O)CCCC2)O1 (stereo not shown)",
    "modifierSign": "=",
    "Ki / nM": 39
  },
  {
    "compound": "CC(C)/C(Cc1ccc(-c2ccc3cccc(F)c3c2)[nH]c1=O)=C1/OC(=O)NC1=O",
    "modifierSign": "=",
    "Ki / nM": 54
  }
]
